Would you kindly list EC50 for each of these molecules?
biological target: Peroxisome proliferator-activated receptor gamma/Nuclear receptor coactivator 3 (Homo sapiens, UniProt P37231); assay type: functional;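 also: agonist potency for raising coactivator recruitment to the receptor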
Sequence (P37231 whole entry): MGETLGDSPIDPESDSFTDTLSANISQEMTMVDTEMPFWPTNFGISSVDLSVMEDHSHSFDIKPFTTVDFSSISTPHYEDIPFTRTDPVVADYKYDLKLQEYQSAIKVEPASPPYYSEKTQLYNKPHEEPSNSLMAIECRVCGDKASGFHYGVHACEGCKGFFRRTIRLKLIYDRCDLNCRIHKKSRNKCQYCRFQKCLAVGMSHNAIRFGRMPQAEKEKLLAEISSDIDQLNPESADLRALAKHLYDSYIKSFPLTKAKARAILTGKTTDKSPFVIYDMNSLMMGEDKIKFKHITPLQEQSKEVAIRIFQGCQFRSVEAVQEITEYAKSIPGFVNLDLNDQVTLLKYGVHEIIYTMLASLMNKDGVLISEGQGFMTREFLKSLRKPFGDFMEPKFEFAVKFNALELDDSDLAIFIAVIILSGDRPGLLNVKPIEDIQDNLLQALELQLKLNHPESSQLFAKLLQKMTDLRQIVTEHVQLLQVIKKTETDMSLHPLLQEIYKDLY
Sequence (Q9Y6Q9 whole entry, further chain): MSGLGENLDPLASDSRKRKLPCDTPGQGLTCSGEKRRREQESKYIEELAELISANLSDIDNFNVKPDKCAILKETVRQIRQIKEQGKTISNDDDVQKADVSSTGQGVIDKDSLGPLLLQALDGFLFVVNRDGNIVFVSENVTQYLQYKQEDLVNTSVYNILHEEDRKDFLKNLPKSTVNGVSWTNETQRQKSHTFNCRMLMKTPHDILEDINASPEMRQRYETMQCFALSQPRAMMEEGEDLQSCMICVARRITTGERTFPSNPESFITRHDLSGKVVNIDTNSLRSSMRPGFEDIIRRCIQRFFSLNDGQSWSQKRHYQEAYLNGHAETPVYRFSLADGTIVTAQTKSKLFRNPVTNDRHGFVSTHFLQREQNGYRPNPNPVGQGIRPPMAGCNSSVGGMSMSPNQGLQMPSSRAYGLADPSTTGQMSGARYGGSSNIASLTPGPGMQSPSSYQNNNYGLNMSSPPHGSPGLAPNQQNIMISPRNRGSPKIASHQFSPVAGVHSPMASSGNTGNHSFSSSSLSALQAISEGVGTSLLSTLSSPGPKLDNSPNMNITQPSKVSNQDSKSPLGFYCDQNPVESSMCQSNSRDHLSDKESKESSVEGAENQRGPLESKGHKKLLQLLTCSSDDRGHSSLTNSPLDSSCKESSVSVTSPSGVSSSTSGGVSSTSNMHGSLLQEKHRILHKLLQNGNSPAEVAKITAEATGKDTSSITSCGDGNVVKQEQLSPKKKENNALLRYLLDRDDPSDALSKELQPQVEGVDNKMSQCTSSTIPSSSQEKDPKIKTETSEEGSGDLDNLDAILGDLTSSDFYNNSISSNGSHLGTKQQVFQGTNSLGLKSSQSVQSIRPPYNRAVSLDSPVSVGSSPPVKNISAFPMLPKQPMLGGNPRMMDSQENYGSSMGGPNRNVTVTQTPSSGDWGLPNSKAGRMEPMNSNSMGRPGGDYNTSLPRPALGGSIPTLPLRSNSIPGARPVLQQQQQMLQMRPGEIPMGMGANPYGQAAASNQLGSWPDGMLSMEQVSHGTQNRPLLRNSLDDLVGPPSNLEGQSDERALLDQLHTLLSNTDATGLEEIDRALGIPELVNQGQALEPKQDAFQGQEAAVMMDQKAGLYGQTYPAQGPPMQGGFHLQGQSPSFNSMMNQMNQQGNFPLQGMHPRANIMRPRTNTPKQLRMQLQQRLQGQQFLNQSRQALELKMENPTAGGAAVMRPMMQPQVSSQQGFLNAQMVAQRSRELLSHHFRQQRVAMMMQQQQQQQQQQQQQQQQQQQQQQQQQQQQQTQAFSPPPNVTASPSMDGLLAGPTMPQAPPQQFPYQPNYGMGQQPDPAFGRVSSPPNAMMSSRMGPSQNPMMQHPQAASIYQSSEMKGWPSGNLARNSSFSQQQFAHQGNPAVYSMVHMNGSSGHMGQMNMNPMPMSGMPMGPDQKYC

*Q* Name the recorded EC50 for `NS(=O)(=O)c1ccc(NC(=S)NCc2ccc(Cl)cc2)cc1` .
*A* > 79.4 µM (not active)

*Q* Also O=C1OCCC1Sc1nnc(-c2ccc(Br)cc2)o1 (centres undefined) , if possible.
*A* > 79.4 µM (not active)

*Q* Also `O=C(c1ccccc1)c1cnc(-c2ccc(Cl)cc2)s1` , if possible.
*A* 21.4 µM (not active)

*Q* Also `Cc1cccn2c(=O)c3cc(C(=O)NCCN4CCOCC4)c(=N)n(CCc4ccccc4)c3nc12` , if possible.
*A* > 79.4 µM (not active)

---

biological target: Albumin (Bos taurus, UniProt P02769); test: Counterscreen for inhibitors of T-cell receptor (TCR)-CD3 interaction: Fluorescence-based biochemical high throughput dose response assay to identify inhibitors of T-cell receptor (TCR)-CD3 interaction using a TAMRA-labeled BSA probe.; assay type: functional
Sequence (P02769 whole entry): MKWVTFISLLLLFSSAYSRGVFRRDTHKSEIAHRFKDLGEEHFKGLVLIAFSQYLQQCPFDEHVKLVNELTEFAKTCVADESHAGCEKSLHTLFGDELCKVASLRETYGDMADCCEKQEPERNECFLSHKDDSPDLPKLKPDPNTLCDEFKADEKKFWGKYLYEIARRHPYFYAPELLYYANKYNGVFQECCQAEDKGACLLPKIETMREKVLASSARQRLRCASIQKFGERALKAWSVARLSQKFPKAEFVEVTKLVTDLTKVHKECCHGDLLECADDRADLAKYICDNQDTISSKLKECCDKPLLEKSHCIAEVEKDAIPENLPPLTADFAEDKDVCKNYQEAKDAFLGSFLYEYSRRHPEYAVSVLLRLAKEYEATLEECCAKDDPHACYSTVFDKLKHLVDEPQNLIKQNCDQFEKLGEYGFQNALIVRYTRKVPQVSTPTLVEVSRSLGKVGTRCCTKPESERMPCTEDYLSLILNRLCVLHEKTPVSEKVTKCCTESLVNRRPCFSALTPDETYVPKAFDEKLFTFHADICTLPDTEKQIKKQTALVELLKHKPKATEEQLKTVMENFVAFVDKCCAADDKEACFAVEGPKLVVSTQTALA
Active and inactive are the calls of the source.
experimental_endpoint: IC50

*Q* Name the recorded IC50 for `C/C(=N\OCc1nc2ccccc2c(=O)n1/N=C/c1cc(C)cc([N+](=O)[O-])c1O)c1ccccc1` .
*A* > 94.1 µM (inactive)

*Q* Also `O=c1oc2ccccc2c2oc3cc(O)c(O)cc3c12` , if possible.
*A* > 94.2 µM (inactive)

*Q* Also `O=C(N/N=C/c1cc([N+](=O)[O-])ccc1O)/C(=C\c1cccs1)NC(=O)c1ccccc1` , if possible.
*A* > 94.1 µM (inactive)

*Q* Also CC(=O)c1cccc(NC(=O)C(OC(=O)c2cccc(S(=O)(=O)N(C)c3ccccc3)c2)c2ccccc2)c1 (centres undefined) , if possible.
*A* > 94.1 µM (inactive)

---

IC50, Estrogen receptor beta (Homo sapiens), per-entry values.
Activity calls are given as the source filed them.

*Q* Name the recorded IC50 for `CC(=O)Nc1ccc(N2CCN(C(C)=O)CC2)cc1` .
*A* > 50 µM (not active)

*Q* Also `O=C1N=C(S)SC1=C1CCCC1` , if possible.
*A* > 50 µM (not active)

*Q* Also `Cc1ccc(C(=O)Nc2nc3ccccc3c(=O)s2)cc1` , if possible.
*A* > 50 µM (not active)

*Q* Also CC(C)CN(C(=O)COC(=O)c1cc2c(s1)CCC2)C1CCS(=O)(=O)C1 (configuration not stated) , if possible.
*A* 1.91 µM (active)

*Q* Also `COC(=O)c1ccc(CC(=O)c2c(C)cc(O)cc2O)o1` , if possible.
*A* 15 µM (active)

*Q* Also `CSC1=N/C(=C\c2ccc(Br)o2)C(=O)S1` , if possible.
*A* 8.58 µM (active)

*Q* Also `Cc1cc(C)c(C(=O)COc2cccnc2[N+](=O)[O-])cc1C` , if possible.
*A* 7.21 µM (active)

---

Would you kindly list IC50 for each of these compounds?
target: Coagulation factor XII (Homo sapiens, UniProt P00748); format: functional;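 also: activated factor XIIa alpha cleaving a fluorogenic AMC peptide substrate; inhibitor potency from loss of enzyme activity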
Sequence (P00748 20-372 limits assumed): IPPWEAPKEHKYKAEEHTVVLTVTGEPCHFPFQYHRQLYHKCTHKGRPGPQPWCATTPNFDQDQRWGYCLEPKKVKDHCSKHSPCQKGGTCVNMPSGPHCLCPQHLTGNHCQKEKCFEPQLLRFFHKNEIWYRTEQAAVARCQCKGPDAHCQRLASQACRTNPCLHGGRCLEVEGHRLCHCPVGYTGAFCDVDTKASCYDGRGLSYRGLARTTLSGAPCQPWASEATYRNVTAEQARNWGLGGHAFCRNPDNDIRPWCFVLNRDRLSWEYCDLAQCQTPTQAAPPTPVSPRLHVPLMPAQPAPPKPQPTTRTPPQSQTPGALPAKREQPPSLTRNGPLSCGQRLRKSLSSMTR
Sequence (P00748 373-615 limits assumed): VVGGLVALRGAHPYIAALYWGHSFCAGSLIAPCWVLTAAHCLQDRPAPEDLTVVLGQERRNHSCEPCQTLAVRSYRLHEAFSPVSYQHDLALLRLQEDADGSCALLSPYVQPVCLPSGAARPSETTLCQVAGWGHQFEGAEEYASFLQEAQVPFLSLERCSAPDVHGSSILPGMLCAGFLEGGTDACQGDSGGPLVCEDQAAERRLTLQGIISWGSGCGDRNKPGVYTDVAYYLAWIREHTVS
Calls of active or inactive are those of the source.

*Q* Name the recorded IC50 for `O=c1oc(-c2ccco2)nc2c1cnn2-c1ccccc1` .
*A* 18.2 µM (active)

*Q* Also O=C1SCCC1NC(=O)C(c1ccccc1)c1ccccc1 (stereo unspecified) , if possible.
*A* > 50 µM (inactive)

*Q* Also `Cc1cc(C)n(-c2nnc(C)n2NS(=O)(=O)c2ccc(F)cc2)n1` , if possible.
*A* > 50 µM (inactive)

*Q* Also `Cc1ccccc1N1CCN(Cc2c[nH]c3ccccc23)CC1` , if possible.
*A* > 50 µM (inactive)

*Q* Also `O=C(O)Cc1ccc(NC(=O)CCN2C(=O)c3ccc([N+](=O)[O-])cc3C2=O)cc1` , if possible.
*A* > 50 µM (inactive)

*Q* Also `Cc1nn(C)c(C)c1S(=O)(=O)N1CCC(C(=O)NCCC2=CCCCC2)CC1` , if possible.
*A* > 50 µM (inactive)
